biological target: FL-SMARCA2 (full-length human SMARCA2 isoform 1) (Homo sapiens, UniProt P51531); construct: FLAG tag (YKDDDDK) (C); made in house; host or cells: Sf21 insect cells (baculovirus, pFastBacI); assay: SMARCA2 ATPase activity assay (ADP-Glo, chicken mononucleosome substrate); format: biochemical; settings: Table 3.1; ATPase assay, enzyme 5 nM, ATP 250 uM, chicken mononucleosome 10 nM, 30 min preincubation
Sequence (P51531 with tags, fused parts or gaps): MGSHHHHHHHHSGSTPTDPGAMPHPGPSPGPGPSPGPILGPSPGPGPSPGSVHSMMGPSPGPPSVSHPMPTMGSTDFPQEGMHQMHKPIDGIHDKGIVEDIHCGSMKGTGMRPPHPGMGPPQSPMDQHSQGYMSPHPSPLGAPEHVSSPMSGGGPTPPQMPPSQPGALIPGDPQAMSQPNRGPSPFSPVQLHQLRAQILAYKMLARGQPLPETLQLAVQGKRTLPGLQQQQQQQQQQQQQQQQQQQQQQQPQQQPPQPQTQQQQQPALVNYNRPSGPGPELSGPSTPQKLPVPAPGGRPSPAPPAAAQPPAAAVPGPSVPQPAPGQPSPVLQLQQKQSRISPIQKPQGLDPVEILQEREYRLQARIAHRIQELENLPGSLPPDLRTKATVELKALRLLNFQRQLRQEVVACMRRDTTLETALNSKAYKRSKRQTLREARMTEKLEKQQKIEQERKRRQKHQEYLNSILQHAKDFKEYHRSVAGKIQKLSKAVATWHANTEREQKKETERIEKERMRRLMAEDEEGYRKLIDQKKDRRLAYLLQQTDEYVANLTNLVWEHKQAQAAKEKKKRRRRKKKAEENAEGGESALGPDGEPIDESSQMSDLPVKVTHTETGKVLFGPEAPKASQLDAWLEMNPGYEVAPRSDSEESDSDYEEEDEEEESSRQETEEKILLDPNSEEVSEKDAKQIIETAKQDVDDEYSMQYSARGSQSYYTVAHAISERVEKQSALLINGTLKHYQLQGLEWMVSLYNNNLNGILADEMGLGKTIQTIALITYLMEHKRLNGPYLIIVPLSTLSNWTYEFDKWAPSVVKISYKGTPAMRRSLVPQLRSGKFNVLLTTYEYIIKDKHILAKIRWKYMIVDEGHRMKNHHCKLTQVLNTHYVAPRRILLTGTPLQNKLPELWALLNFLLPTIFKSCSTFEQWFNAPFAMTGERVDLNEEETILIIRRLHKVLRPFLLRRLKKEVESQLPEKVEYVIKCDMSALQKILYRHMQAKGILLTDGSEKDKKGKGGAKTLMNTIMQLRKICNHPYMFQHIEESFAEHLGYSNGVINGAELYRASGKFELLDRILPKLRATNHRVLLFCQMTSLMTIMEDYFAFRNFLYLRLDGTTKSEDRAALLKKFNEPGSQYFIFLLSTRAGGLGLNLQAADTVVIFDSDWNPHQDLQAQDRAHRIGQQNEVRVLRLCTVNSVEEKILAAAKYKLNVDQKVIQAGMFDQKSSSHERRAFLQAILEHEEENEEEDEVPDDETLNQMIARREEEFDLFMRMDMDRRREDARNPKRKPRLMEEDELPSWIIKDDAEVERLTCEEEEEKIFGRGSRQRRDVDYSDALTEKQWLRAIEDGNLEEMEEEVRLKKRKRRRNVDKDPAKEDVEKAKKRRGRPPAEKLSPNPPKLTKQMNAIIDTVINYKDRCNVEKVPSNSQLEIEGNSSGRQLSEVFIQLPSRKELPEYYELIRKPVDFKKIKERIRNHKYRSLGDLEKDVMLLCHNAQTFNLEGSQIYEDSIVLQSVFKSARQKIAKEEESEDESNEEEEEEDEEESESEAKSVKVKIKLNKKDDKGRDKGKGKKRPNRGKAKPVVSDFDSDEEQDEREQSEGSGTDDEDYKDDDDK
ATTRIBUTE_MEASURED: log10 IC50 (log10 of the value in nM)
Hello, just confirming the data are log10 of IC50 with units of nM.

Request the reported log10 IC50 associated with `CCn1cc(NC(=O)c2cc(C#N)c(C#N)s2)cc(F)c1=O`
1.48

Further, for CC(CF)n1cc(NC(=O)c2cc(Cl)c(C(F)(F)F)s2)cc(F)c1=O (stereo not shown) ?
2.84

And what about the compound `CCn1cc(NC(=O)c2cc(Cl)c(Cl)n2CCF)ccc1=O` ?
4.22

Same thing, different compound: `CCn1cc(NC(=O)c2ccc(F)s2)ccc1=O`
4.29

Input `O=C(Nc1cc(F)c(=O)n(CCF)c1)c1cc(F)c(F)s1`
1.71

Lookup `CCn1cc(NC(=O)c2cc(Cl)c(Cl)s2)cc(NCCN(C)C)c1=O`
3.97

Now the compound `CN(C)CCCNc1cc(NC(=O)c2cc(Cl)c(Cl)s2)cn(CCF)c1=O`
4.18

Can you check `N#Cc1sc(C(=O)Nc2cc(Cl)c(=O)n(CC(F)(F)F)c2)cc1Cl` next?
2.05

// same read-out, input: `N#Cc1cc(C(=O)Nc2cc(F)c(=O)n(CCF)c2)oc1Cl`
3.30

Another: `O=C(Nc1ccc(=O)n(CC(F)(F)F)c1)c1cc(Cl)n[nH]1`
3.48

Note, next up: `Cn1c(C(=O)Nc2cc(F)c(=O)n(CCF)c2)cnc1C#N`
2.69

Thanks! And `CCn1cc(NC(=O)c2cnc(Cl)s2)ccc1=O` ?
3.40

Same question for `N#Cc1sc(C(=O)Nc2cc(F)c(=O)n(CCF)c2)cc1Cl` please.
1.29

Entry to check: `O=C(Nc1ccc(=O)n(CC2CC2)c1)c1cc(Cl)c(Cl)s1`
4.17

Quick one: `O=C(Nc1cc(F)c(=O)n(CCF)c1)c1cc(C#Cc2cccnc2)c(Cl)s1`
1.58

Same thing, different compound: `Nc1c(C(=O)Nc2cc(F)c(=O)n(CC(F)F)c2)sc(Cl)c1Cl`
2.52

Try `O=C(Nc1cc(F)c(=O)n(CC(F)(F)F)c1)c1cc(Cl)c(Cl)s1` next.
1.97

Try this compound too: `N#Cc1cc(NC(=O)c2cc(Cl)c(Cl)[nH]2)cn(CC(F)(F)F)c1=O`
3.36

Follow-up entry: `O=C(Nc1cc(F)c(=O)n(CCF)c1)c1cc(Cl)c(C(F)F)s1`
2.13

Again, but for `N#Cc1cc(C(=O)Nc2cc(Cl)c(=O)n(CCF)c2)sc1C#N`
1.23

Now this one: `O=C(Nc1cc(Cl)c(=O)n(CC(F)F)c1)c1cc(F)c(Cl)s1`
1.53

Query `N#Cc1sc(C(=O)Nc2cc(F)c(=O)n(CC(F)(F)F)c2)cc1Cl` next
1.67

Request: `COc1ncc(C(=O)Nc2cc(F)c(=O)n(CCF)c2)s1`
4.26
